This collection of values is drawn from PubChem BioAssay.

- Test System: Fibroblast growth factor 10 (Homo sapiens)
- Experimental Protocol: FGF10 binders on small-molecule microarrays, primary screen, biochemical, small-molecule microarray, 635 nm fluorescence (AID 1102)
- Study Conditions: FGF10 binding, fluorescence 635 nm, higher = more signal
Quantity Measured: composite z-score
Give a plain numeric answer without units written out.

Prompt: Give its composite z-score value. Item: CN(C)CCCCCCNC(=O)[C@@H]1C[C@@H]2C(=O)N[C@@H](CCCCN)C(=O)N2[C@@H]1c1cccc(OCCO)c1
Completion: 1.59

Prompt: Okay, and C=CCOC(=O)[C@@H]1[C@H]2C(=O)O[C@H](c3ccccc3)[C@H](c3ccccc3)N2[C@H](c2ccc(OCCOC(=O)[C@@H]3C[C@@H]4C(=O)N[C@@H](Cc5ccccc5)C(=O)N4[C@@H]3c3ccc(O)cc3)cc2)[C@@]12C(=O)Nc1ccc(I)cc12 ?
Completion: 1.16

Prompt: Can you check CC(C)C(=C=CC[C@@H](O)c1ccccc1OCCO)CCO next?
Completion: 1.36

Prompt: What would you report for COC(=O)c1c(CC[C@@H](CO)NC(=O)N[C@@H](C)Cn2cc(C3(O)CCCCC3)nn2)oc(C(C)=O)c1C(=O)OC ?
Completion: 1.2

Prompt: Can you check COCCOC(=O)N1C(=O)[C@@]2(c3cc(C#Cc4ccc(OC)cc4)ccc31)[C@H](c1ccccc1OCCO)N1[C@H](c3ccccc3)[C@H](c3ccccc3)OC(=O)[C@H]1[C@@H]2C(=O)N1CCN(c2ncccn2)CC1 next?
Completion: 0.743

Prompt: Next up: C=CCOC(=O)[C@H]1[C@@H]2C(=O)O[C@@H](c3ccccc3)[C@@H](c3ccccc3)N2[C@@H](c2ccc(OCCOC(=O)[C@H]3C[C@H]4C(=O)N5CCC[C@H]5C(=O)N4[C@H]3c3ccc(O)cc3)cc2)[C@]12C(=O)Nc1ccccc12
Completion: 1.47

Prompt: Next record, please: O=C(NCc1ccccc1)[C@@H]1c2ccccc2C(=O)N(CC23CC4CC(CC(C4)C2)C3)[C@H]1c1ccc(CO)cc1
Completion: 0.971

Prompt: Record: CC[C@@H]1C=C(C(=O)O)[C@H](c2ccco2)N1S(=O)(=O)c1ccc(C)cc1
Completion: 0.0314

Prompt: For CC(C)C[C@H]1NC(=O)[C@@]23C(=O)N[C@@H](Cc4ccccc4)C2[C@H](C)[C@@]2(C)O[C@H]2C3/C=C/C/C=C\CNC(=O)[C@H](Cc2ccccc2)NC1=O (some centres undefined) then?
Completion: 0.903

Prompt: // same read-out, input: CN(C)C(=O)[C@]1(Cc2ccccc2CN=[N+]=[N-])N=C(c2ccc(OCCCO)cc2)O[C@@H]1c1ccccc1CN=[N+]=[N-]
Completion: 1.17

Prompt: // query: CCCCC=C[C@@H](NC(=O)Oc1cccc(C(F)(F)F)c1)c1ccccc1
Completion: 1.09

Prompt: Now consider O=C1[C@H]2C=C(Br)[C@H](C[C@@H]2c2ccccc2)[C@@]12CO2 and answer again.
Completion: 0.774

Prompt: // next record COc1ccc(C(=O)Nc2ccc(CN3C(=O)[C@@]4(O[C@@H](CCn5cc([C@H](O)c6ccccc6)nn5)[C@H]([Si](C)(C)c5ccc(OC)cc5)[C@H]4C)c4ccccc43)cc2)cc1
Completion: -0.0022

Prompt: Try the compound O=C1OCC=C[C@H]2OC34C=CCN(CCN5CCOCC5)C(=O)[C@H]3N(CCCO)C(=O)[C@@H]4[C@@H]12 (some centres undefined)
Completion: -0.116
